target: T1, Recombinant Human DLL4 (delta-like protein 4) (human, UniProt Q9NR61 27-524); assay: ELISA on coated DLL4, Fab at 50 nM (2-fold serial dilution)
T1 construct: also called rHuman DLL4; Delta-like 4
We begin with a simple list: items and their reported ELISA signal.
Lab note: record the figure alone, no unit after it.

Query: // lookup ELISA signal for Fab VH5-51_IGHD5-18*01>3_IGHJ4*01 G100K/G104T (KT) & V3-4_IGLJ1*01 R56A (Fab, V domains shown, Fab; also called H:KT & L:R56A) VH: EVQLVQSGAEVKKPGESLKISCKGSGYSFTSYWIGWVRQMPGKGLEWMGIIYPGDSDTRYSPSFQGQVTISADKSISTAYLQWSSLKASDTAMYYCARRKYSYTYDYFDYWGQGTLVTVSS VL: QTVVTQEPSFSVSPGGTVTLTCGLSSGSVSTSYYPSWYQQTPGQAPRTLIYSTNTASSGVPDRFSGSILGNKAALTITGAQADDESDYYCVLYMGSGISYVFGTGTKVTVL
Reply: 0.239

Query: For the binder shown here, Fab VH5-51_IGHD5-18*01>3_IGHJ4*01 G100K/G104T G24L & V3-4_IGLJ1*01 (Fab, V domains shown, Fab; also called H:KT G24L & L:parent) VH: EVQLVQSGAEVKKPGESLKISCKLSGYSFTSYWIGWVRQMPGKGLEWMGIIYPGDSDTRYSPSFQGQVTISADKSISTAYLQWSSLKASDTAMYYCARRKYSYTYDYFDYWGQGTLVTVSS VL: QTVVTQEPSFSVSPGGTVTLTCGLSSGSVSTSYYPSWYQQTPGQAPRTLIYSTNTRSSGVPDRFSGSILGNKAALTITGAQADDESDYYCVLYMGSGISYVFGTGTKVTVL , give the reported ELISA signal.
Reply: 0.245

Query: Tell me the measured ELISA signal of Fab VH5-51_IGHD5-18*01>3_IGHJ4*01 G100K/G104T S28R & V3-4_IGLJ1*01 (Fab, V domains shown, Fab; also called H:KT S28R & L:parent; H:KT S28R & L:wt) VH: EVQLVQSGAEVKKPGESLKISCKGSGYRFTSYWIGWVRQMPGKGLEWMGIIYPGDSDTRYSPSFQGQVTISADKSISTAYLQWSSLKASDTAMYYCARRKYSYTYDYFDYWGQGTLVTVSS VL: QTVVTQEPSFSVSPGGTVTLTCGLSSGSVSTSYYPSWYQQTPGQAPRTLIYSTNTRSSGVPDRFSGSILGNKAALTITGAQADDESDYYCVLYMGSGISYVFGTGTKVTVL , please.
Reply: 0.456
